System: Mycobacterium tuberculosis
Test: Antibacterial activity against Mycobacterium tuberculosis H37Rv harboring pSMT1 encoding Vibrio harveyi luxAB gene at 10 uM after 7 days by luminometric analysis
Type: functional
Details: 168 h, read-out: GI
RECORDED ENDPOINT: inhibition of growth at 10 µM (%)

SMI: CCCNC(=N)c1ccc(N2CCN(c3ccccc3)CC2)cc1.Cl
MEASURED TARGET: Mycobacterium tuberculosis
RECORDED ENDPOINT: inhibition of growth at 10 µM
LT GT EQ: =
REPORTED: 33
//
SMI: CCCCCCCNC(=N)c1ccc(N2CCN(c3ccccc3)CC2)cc1.Cl
MEASURED TARGET: Mycobacterium tuberculosis
RECORDED ENDPOINT: inhibition of growth at 10 µM
LT GT EQ: =
REPORTED: 100
//
SMI: CCCCCCCCCCCCNC(=N)c1ccc(N2CCN(c3ccccc3)CC2)cc1.Cl
MEASURED TARGET: Mycobacterium tuberculosis
RECORDED ENDPOINT: inhibition of growth at 10 µM
LT GT EQ: =
REPORTED: 100
//
SMI: O=[N+]([O-])c1cccc(NCCNc2cccc([N+](=O)[O-])c2)c1
MEASURED TARGET: Mycobacterium tuberculosis
RECORDED ENDPOINT: inhibition of growth at 10 µM
LT GT EQ: =
REPORTED: 13
//
SMI: O=[N+]([O-])c1ccc(NCCNc2ccc([N+](=O)[O-])cc2)cc1
MEASURED TARGET: Mycobacterium tuberculosis
RECORDED ENDPOINT: inhibition of growth at 10 µM
LT GT EQ: =
REPORTED: 16
//
SMI: Nc1ccc(N2CCN(c3ccccc3)CC2)cc1
MEASURED TARGET: Mycobacterium tuberculosis
RECORDED ENDPOINT: inhibition of growth at 10 µM
LT GT EQ: =
REPORTED: 30
//
SMI: N#Cc1ccc(N2CCN(c3ccccc3)CC2)cc1
MEASURED TARGET: Mycobacterium tuberculosis
RECORDED ENDPOINT: inhibition of growth at 10 µM
LT GT EQ: =
REPORTED: 23
//
SMI: Nc1ccc(N2CCN(c3ccc(N)cc3)CC2)cc1
MEASURED TARGET: Mycobacterium tuberculosis
RECORDED ENDPOINT: inhibition of growth at 10 µM
LT GT EQ: =
REPORTED: 27
//
SMI: Cl.N=C(N)c1ccc(N2CCN(c3ccccc3)CC2)cc1
MEASURED TARGET: Mycobacterium tuberculosis
RECORDED ENDPOINT: inhibition of growth at 10 µM
LT GT EQ: =
REPORTED: 14
//
SMI: CNC(=N)c1ccc(N2CCN(c3ccccc3)CC2)cc1.Cl
MEASURED TARGET: Mycobacterium tuberculosis
RECORDED ENDPOINT: inhibition of growth at 10 µM
LT GT EQ: =
REPORTED: 16
//
SMI: CCC(CC)NC(=N)c1ccc(N2CCN(c3ccccc3)CC2)cc1
MEASURED TARGET: Mycobacterium tuberculosis
RECORDED ENDPOINT: inhibition of growth at 10 µM
LT GT EQ: =
REPORTED: 67
//
SMI: O=[N+]([O-])c1ccc(N2CCN(c3ccccc3)CC2)cc1
MEASURED TARGET: Mycobacterium tuberculosis
RECORDED ENDPOINT: inhibition of growth at 10 µM
LT GT EQ: =
REPORTED: 26
//
SMI: O=[N+]([O-])c1ccccc1NCCNc1ccccc1[N+](=O)[O-]
MEASURED TARGET: Mycobacterium tuberculosis
RECORDED ENDPOINT: inhibition of growth at 10 µM
LT GT EQ: <
REPORTED: 10
//
SMI: CCCCCCCCNC(=N)c1ccc(N2CCN(c3ccccc3)CC2)cc1.Cl
MEASURED TARGET: Mycobacterium tuberculosis
RECORDED ENDPOINT: inhibition of growth at 10 µM
LT GT EQ: =
REPORTED: 100
//
SMI: N#Cc1ccccc1NCCNc1ccccc1C#N
MEASURED TARGET: Mycobacterium tuberculosis
RECORDED ENDPOINT: inhibition of growth at 10 µM
LT GT EQ: <
REPORTED: 10
//
SMI: N=C(NCCc1ccccc1)c1ccc(N2CCN(c3ccccc3)CC2)cc1
MEASURED TARGET: Mycobacterium tuberculosis
RECORDED ENDPOINT: inhibition of growth at 10 µM
LT GT EQ: =
REPORTED: 97
//
SMI: CCCCCCNC(=N)c1ccc(NCCNc2ccccc2)cc1
MEASURED TARGET: Mycobacterium tuberculosis
RECORDED ENDPOINT: inhibition of growth at 10 µM
LT GT EQ: =
REPORTED: 93
//
SMI: NNC(=O)c1ccncc1
MEASURED TARGET: Mycobacterium tuberculosis
RECORDED ENDPOINT: inhibition of growth at 10 µM
LT GT EQ: =
REPORTED: 100
//
SMI: N=C(N)c1ccc(NCCNc2ccccc2)cc1
MEASURED TARGET: Mycobacterium tuberculosis
RECORDED ENDPOINT: inhibition of growth at 10 µM
LT GT EQ: <
REPORTED: 100
//
SMI: N#Cc1ccc(N2CCN(c3ccc(C#N)cc3)CC2)cc1
MEASURED TARGET: Mycobacterium tuberculosis
RECORDED ENDPOINT: inhibition of growth at 10 µM
LT GT EQ: =
REPORTED: 22
//
SMI: N#Cc1ccc(NCCNc2ccc(C#N)cc2)cc1
MEASURED TARGET: Mycobacterium tuberculosis
RECORDED ENDPOINT: inhibition of growth at 10 µM
LT GT EQ: =
REPORTED: 10
//
SMI: CCCCCNC(=N)c1ccc(N2CCN(c3ccccc3)CC2)cc1.Cl
MEASURED TARGET: Mycobacterium tuberculosis
RECORDED ENDPOINT: inhibition of growth at 10 µM
LT GT EQ: =
REPORTED: 95
//
SMI: CCCCNC(=N)c1ccc(N2CCN(c3ccccc3)CC2)cc1.Cl
MEASURED TARGET: Mycobacterium tuberculosis
RECORDED ENDPOINT: inhibition of growth at 10 µM
LT GT EQ: =
REPORTED: 66
//
SMI: CCNC(=N)c1ccc(N2CCN(c3ccccc3)CC2)cc1.Cl
MEASURED TARGET: Mycobacterium tuberculosis
RECORDED ENDPOINT: inhibition of growth at 10 µM
LT GT EQ: =
REPORTED: 10
//
SMI: N#Cc1cccc(NCCNc2cccc(C#N)c2)c1
MEASURED TARGET: Mycobacterium tuberculosis
RECORDED ENDPOINT: inhibition of growth at 10 µM
LT GT EQ: <
REPORTED: 10
